Recorded cell viability for the following molecules
System: Calu-3
measurement.description: cell viability relative to DMSO; higher = less toxic
particulars: 72 h; 1000 nM
Structures can show the parent of a compound that is named as a salt.
Give the value, in units of %, as a plain number.

Illustrative cases are given below, each with its answer.
{"columns": ["molecule", "measured.attribute", "unit.string", "numeric.value"],
 "data": [
  ["O=C1NC(=O)c2c1c1c3ccccc3[nH]c1c1[nH]c3ccccc3c21", "cell viability", "%", 104],
  ["CSc1nc(N)cc(Oc2ccc(-c3nnc(Nc4cccc(C(F)(F)F)c4)[nH]3)cc2)n1", "cell viability", "%", 93.2],
  ["C[C@]12CCC(=O)C=C1[C@@H]1C[C@@H]1[C@H]1[C@@H]3[C@@H]4C[C@@H]4[C@@]4(CCC(=O)O4)[C@@]3(C)CC[C@@H]12", "cell viability", "%", 100],
  ["O=C1c2cccc(O)c2C(=O)c2c(O)cccc21", "cell viability", "%", 98.6],
  ["CCNCCCNCCCCNCCCNCC", "cell viability", "%", 102],
  ["CO/N=C(\\C(=O)N[C@@H]1C(=O)N2C(C(=O)O)=C(Cn3ccc(=N)n3CCO)CS[C@H]12)c1csc(N)n1 [Cefoselis sulfate]", "cell viability", "%", 96.1],
  ["O=C(Nc1cccc2cccnc12)c1ccc(N2C(=O)[C@@H]3[C@H](C2=O)[C@H]2C=C[C@@H]3C2)cc1 [exo-IWR-1]", "cell viability", "%", 103]
]}

Consider now this further molecule.
(Q) // fetch cell viability; item: C[C@H](CCC(=O)O)[C@H]1CC[C@H]2[C@@H]3[C@H](O)C[C@@H]4C[C@H](O)CC[C@]4(C)[C@H]3C[C@H](O)[C@]12C ; system: Calu-3
(A) 99

Source listed as the supplement of paper PMC13380429.
